Reported values: MIC for S. aureus CJ200, one per item.
A number alone suffices; assume µg/mL.

Here is how some compounds turned out for MIC.
COMPOUND: CC(=O)O[C@H]1C[C@@]2(C)C(C[C@@H](O)C3[C@@]4(C)CC[C@@H](OC(C)=O)[C@@H](C)C4CC[C@@]32C)[C@@H]1[C@H](CCCC(C)C)C(=O)NCCCN(CCCN)CCCN (stereo partly drawn) [Compound 115]
TEST_SYSTEM: S. aureus CJ200
MIC (µg/mL): 4
--
COMPOUND: C[C@H](C(=O)NCCCN(CCCN)CCCN)[C@H]1CC[C@H]2[C@@H]3CC=C4C[C@@H](O)CC[C@]4(C)[C@H]3CC[C@]12C [Compound 114]
TEST_SYSTEM: S. aureus CJ200
MIC (µg/mL): 16
--
COMPOUND: CC(=O)O[C@H]1C[C@@]2(C)C(CCC3[C@@]4(C)CC[C@@H](O)[C@@H](C)C4CC[C@@]32C)[C@@H]1[C@H](CCCC(C)C)C(=O)NCCN(CCN)CCN (stereo partly drawn) [Compound 102]
TEST_SYSTEM: S. aureus CJ200
MIC (µg/mL): 4

With those in mind, consider the next compound.
Input: Provide the reported MIC (system: S. aureus CJ200) for CC(=O)O[C@H]1C[C@@]2(C)[C@@H](C[C@@H](O)[C@H]3[C@@]4(C)CC[C@@H](O)[C@@H](C)[C@@H]4CC[C@@]32C)/C1=C(\CCC=C(C)C)C(=O)O [FA, fusidic acid, reference compound]
Output: 0.02
